# ASSAY_TEXT: Light fastness of printed samples (density loss after xenon lamp irradiation)
# Format: physicochemical
# CONDITION_DESCRIPTION: xenon lamp, total illumination 20 kJoule/cm^2; state of the art dyes, Table 7
READOUT_KIND: Density loss in %
Returns: string containing the number followed by the unit.

Please review the following examples before continuing.
* Nc1ccc2cc(S(=O)(=O)O)c(N=Nc3ccc(N=Nc4cccc(C(=O)O)c4)c4ccc(S(=O)(=O)O)cc34)c(O)c2c1 [Compound 23, reference compound] | 2%
* Nc1ccc2cc(S(=O)(=O)O)c(N=Nc3ccc(N=Nc4cc(C(=O)O)cc(C(=O)O)c4)c4cc(S(=O)(=O)O)ccc34)c(O)c2c1 [Compound 25, reference compound] | 2%
* O=C(O)CCNc1ccc2cc(S(=O)(=O)O)c(N=Nc3ccc(N=Nc4ccc(C(=O)O)cc4)c4ccc(S(=O)(=O)O)cc34)c(O)c2c1 [Compound 27, reference compound] | 12%

Consider the record given below.
Lab book: Density loss in % of O=C(O)CCNc1ccc2cc(S(=O)(=O)O)c(N=Nc3ccc(N=Nc4cccc(C(=O)O)c4)c4ccc(S(=O)(=O)O)cc34)c(O)c2c1 [Compound 26, reference compound] noted as 8%

###

# ASSAY_TEXT: Absorption maximum in water
# Format: physicochemical
# CONDITION_DESCRIPTION: Table 6
Catalogue of HD max in water readings, one per entry.
# unit: nm | format: bare number

* O=P(O)(O)Cc1ccc(N=Nc2ccc(N=Nc3c(S(=O)(=O)O)cc4ccc(NCCS(=O)(=O)O)cc4c3O)c3cc(S(=O)(=O)O)ccc23)cc1 | 578

Lab book: HD max in water of O=C(O)CCc1ccc(N=Nc2ccc(N=Nc3c(S(=O)(=O)O)cc4ccc(NCCS(=O)(=O)O)cc4c3O)c3cc(S(=O)(=O)O)ccc23)cc1 noted as 576

Lab book: HD max in water of O=S(=O)(O)CCNc1ccc2cc(S(=O)(=O)O)c(N=Nc3ccc(N=Nc4cc(S(=O)(=O)O)c5cccc(S(=O)(=O)O)c5c4)c4ccc(S(=O)(=O)O)cc34)c(O)c2c1 noted as 581

###

# ASSAY_TEXT: Color co-ordinates (L*a*b*) of printed samples
# Assay type: physicochemical
# CONDITION_DESCRIPTION: Table 6
READOUT_KIND: L*a*b*-value: b*
Answer field: number only, no words.

Please review the following examples before continuing.
• O=C(O)c1cc(N=Nc2ccc(N=Nc3c(S(=O)(=O)O)cc4ccc(NCCS(=O)(=O)O)cc4c3O)c3cc(S(=O)(=O)O)ccc23)cc(C(=O)O)c1 [Compound 16] = 0.5
• O=C(O)c1ccc(N=Nc2ccc(N=Nc3c(S(=O)(=O)O)cc4ccc(NCCS(=O)(=O)O)cc4c3O)c3cc(S(=O)(=O)O)ccc23)cc1Cl [Compound 15] = -1.7
• O=C(O)c1cccc(N=Nc2ccc(N=Nc3c(S(=O)(=O)O)cc4ccc(NCCS(=O)(=O)O)cc4c3O)c3cc(S(=O)(=O)O)ccc23)c1 [Compound 2] = 0.3
• O=S(=O)(O)CCNc1ccc2cc(S(=O)(=O)O)c(N=Nc3ccc(N=Nc4ccc(CS(=O)(=O)O)cc4)c4ccc(S(=O)(=O)O)cc34)c(O)c2c1 [Compound 8] = -6.6
• O=S(=O)(O)CCNc1ccc2cc(S(=O)(=O)O)c(N=Nc3ccc(N=Nc4ccc(S(=O)(=O)O)cc4)c4ccc(S(=O)(=O)O)cc34)c(O)c2c1 [Compound 3] = -2.5
• O=C(O)CCc1ccc(N=Nc2ccc(N=Nc3c(S(=O)(=O)O)cc4ccc(NCCS(=O)(=O)O)cc4c3O)c3cc(S(=O)(=O)O)ccc23)cc1 [Compound 12] = -3.1
• O=C(O)c1cc(N=Nc2ccc(N=Nc3c(S(=O)(=O)O)cc4ccc(NCCS(=O)(=O)O)cc4c3O)c3ccc(S(=O)(=O)O)cc23)cc(C(=O)O)c1 [Compound 17] = 2.3
• O=S(=O)(O)CCNc1ccc2cc(S(=O)(=O)O)c(N=Nc3ccc(N=Nc4ccc(CS(=O)(=O)O)cc4)c4cc(S(=O)(=O)O)ccc34)c(O)c2c1 [Compound 9] = -5.2
• O=S(=O)(O)CCNc1ccc2cc(S(=O)(=O)O)c(N=Nc3ccc(N=Nc4ccc(S(=O)(=O)O)cc4)c4cc(S(=O)(=O)O)ccc34)c(O)c2c1 [Compound 4] = -7.5
• O=S(=O)(O)CCNc1ccc2cc(S(=O)(=O)O)c(N=Nc3ccc(N=Nc4ccc(CCO)cc4)c4ccc(S(=O)(=O)O)cc34)c(O)c2c1 [Compound 11] = -3.1

Lab book: L*a*b*-value: b* of O=S(=O)(O)CCNc1ccc2cc(S(=O)(=O)O)c(N=Nc3ccc(N=Nc4ccc(S(=O)(=O)O)cc4)c4ccc(S(=O)(=O)O)cc34)c(O)c2c1 [Compound 5] noted as -2.4

Lab book: L*a*b*-value: b* of O=C(O)CCC(NC(=O)c1ccc(N=Nc2ccc(N=Nc3c(S(=O)(=O)O)cc4ccc(NCCS(=O)(=O)O)cc4c3O)c3cc(S(=O)(=O)O)ccc23)cc1)C(=O)O (stereo not drawn) [Compound 14] noted as 2.4

src = patent US5969115A
